Molecular target: USP9X (UniProt Q93008)
Sequence (Q93008 whole entry, the tested form may be a part): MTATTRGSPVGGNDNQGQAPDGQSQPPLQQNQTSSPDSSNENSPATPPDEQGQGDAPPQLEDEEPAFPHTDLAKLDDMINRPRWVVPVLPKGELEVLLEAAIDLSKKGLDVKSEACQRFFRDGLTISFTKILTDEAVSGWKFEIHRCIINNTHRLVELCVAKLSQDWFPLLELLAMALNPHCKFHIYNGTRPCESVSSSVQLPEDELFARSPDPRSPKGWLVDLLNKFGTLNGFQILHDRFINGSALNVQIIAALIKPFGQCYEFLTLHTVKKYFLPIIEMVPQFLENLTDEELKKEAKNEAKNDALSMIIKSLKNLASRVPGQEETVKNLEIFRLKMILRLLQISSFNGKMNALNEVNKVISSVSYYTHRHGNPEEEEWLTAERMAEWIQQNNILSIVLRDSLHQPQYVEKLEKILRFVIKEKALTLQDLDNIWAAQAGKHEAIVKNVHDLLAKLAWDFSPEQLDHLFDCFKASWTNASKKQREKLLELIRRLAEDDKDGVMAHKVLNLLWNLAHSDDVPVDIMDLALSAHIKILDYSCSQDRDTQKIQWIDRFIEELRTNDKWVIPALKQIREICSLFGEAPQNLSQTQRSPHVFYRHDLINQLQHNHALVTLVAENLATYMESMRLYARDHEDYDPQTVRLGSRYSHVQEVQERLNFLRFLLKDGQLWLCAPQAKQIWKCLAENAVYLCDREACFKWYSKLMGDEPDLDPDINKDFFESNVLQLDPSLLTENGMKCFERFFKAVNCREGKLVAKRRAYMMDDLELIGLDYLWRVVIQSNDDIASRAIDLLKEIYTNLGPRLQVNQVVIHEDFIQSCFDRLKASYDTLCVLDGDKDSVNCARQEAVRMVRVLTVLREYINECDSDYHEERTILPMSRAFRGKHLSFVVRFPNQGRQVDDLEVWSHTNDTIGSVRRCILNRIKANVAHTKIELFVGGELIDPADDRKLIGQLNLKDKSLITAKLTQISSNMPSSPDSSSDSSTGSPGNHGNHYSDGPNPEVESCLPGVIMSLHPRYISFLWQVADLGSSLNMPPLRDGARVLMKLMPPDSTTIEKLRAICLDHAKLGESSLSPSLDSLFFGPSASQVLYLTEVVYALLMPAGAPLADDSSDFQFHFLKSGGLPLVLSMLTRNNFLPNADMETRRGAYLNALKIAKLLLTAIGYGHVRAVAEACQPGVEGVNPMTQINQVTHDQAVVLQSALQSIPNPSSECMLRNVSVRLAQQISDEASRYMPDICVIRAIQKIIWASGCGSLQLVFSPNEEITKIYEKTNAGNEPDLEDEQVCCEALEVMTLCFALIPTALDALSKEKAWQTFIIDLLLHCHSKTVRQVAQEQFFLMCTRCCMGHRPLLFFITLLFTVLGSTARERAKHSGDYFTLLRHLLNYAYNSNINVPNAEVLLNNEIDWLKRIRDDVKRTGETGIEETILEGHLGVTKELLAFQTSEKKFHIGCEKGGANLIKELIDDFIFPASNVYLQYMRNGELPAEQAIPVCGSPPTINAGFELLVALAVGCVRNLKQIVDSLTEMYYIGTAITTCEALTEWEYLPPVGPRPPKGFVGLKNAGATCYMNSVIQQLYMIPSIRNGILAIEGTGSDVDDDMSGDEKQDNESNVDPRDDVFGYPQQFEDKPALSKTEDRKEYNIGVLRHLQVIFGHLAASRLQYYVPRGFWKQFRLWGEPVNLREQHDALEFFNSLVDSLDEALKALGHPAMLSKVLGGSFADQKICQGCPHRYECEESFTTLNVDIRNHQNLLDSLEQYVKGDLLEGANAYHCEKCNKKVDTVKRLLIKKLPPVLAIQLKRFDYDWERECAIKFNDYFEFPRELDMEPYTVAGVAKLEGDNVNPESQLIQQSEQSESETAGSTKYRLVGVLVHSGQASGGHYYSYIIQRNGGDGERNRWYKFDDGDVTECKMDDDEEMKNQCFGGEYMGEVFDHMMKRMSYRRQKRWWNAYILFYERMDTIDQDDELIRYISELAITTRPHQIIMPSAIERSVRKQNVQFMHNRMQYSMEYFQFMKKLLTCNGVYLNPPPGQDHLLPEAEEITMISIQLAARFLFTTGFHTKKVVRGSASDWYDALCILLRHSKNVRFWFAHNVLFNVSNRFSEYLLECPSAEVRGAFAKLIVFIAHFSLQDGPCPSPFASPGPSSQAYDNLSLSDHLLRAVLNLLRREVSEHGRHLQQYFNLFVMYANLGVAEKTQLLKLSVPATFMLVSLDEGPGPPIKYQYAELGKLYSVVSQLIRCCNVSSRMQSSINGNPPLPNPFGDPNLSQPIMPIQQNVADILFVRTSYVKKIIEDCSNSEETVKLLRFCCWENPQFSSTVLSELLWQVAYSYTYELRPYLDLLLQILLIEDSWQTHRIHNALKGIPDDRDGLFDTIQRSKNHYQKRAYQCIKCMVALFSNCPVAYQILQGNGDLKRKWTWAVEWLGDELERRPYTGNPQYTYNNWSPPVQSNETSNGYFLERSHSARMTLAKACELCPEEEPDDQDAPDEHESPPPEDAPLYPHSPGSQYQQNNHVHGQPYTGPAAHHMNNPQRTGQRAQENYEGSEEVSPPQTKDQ
Experiment: log2 ratio of Biotin-Ahx-Ub-VS probe labelling (fragment/DMSO); higher = less target engagement (more negative = stronger competition), active = hit call of the paper (q ≤ 0.05, log2 ratio ≤ -1)
Conditions: compound concentration: 200 uM; treatment time: 3 h
# thresholds on log2 ratio of Biotin-Ahx-Ub-VS probe labelling define classes: group 1: < -0.3; group 2: ≥ -0.3 and < -0.1; group 3: ≥ -0.1

• Cc1cccc2nc(CCNC(=O)CCl)cn12.Cl = group 1
• Cc1ccc(CN(C)C(=O)CCl)o1 = group 2
• O=C(CCl)NCCC1COCCO1 (centres undefined) = group 2
• Cl.Cn1nc2c(c1CNC(=O)CCl)CCCC2 = group 2
• Cc1ccc(C(=O)NCCNC(=O)CCl)cc1 = group 1
• Cc1ccc(CC(NC(=O)CCl)c2ccccn2)cc1.Cl (centres undefined) = group 3
• O=C(CCl)N1CCOC2(CCC2)CC1 = group 3
• Cc1ccccc1CN(C)C(=O)CCl = group 1

Task: State the class of the compound shown: `O=C(CCl)NCc1ccc2c(c1)OCO2`
Result: group 2

Task: State the class of the compound shown: `O=C(CCl)Nc1cccc(C(=O)N2CCSCC2)c1`
Result: group 3

Task: State the class of the compound shown: `O=C(CCl)NCc1cccc(N2CCCC2=O)c1`
Result: group 2

Task: State the class of the compound shown: `Cl.O=C(CCl)N1CCn2ncc(O)c2C1`
Result: group 1

Task: State the class of the compound shown: `Cc1n[nH]c2c1CN(C(=O)CCl)CC2`
Result: group 1

Task: State the class of the compound shown: `O=C(CCl)N1CCC(S(=O)(=O)c2ccc(F)cc2)CC1`
Result: group 2

====

Molecular target: UCHL3 (UniProt P15374)
Sequence (P15374 whole entry, the tested form may be a part): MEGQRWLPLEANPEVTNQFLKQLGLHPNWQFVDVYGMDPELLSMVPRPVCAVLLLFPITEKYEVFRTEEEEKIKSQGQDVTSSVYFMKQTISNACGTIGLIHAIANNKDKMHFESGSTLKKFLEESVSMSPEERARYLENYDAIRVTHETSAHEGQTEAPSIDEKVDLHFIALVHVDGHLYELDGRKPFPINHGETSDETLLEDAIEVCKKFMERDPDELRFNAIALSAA
Test: log2 ratio of Biotin-Ahx-Ub-VS probe labelling (fragment/DMSO); higher = less target engagement (more negative = stronger competition), active = hit call of the paper (q ≤ 0.05, log2 ratio ≤ -1)
Conditions: compound concentration: 200 uM; treatment time: 3 h
Observable: log2 ratio of Biotin-Ahx-Ub-VS probe labelling
One number for each entry.

Observe how each entry below is paired with its result.
* COCC1C=CCCN1C(=O)CCl (configuration not stated) | -0.0426
* O=C(CCl)NC1CCOc2ccccc21 (configuration not stated) | -0.57
* CC(=O)C1CCCCN1C(=O)CCl (configuration not stated) | 0.181
* CC1(NC(=O)CCl)CCS(=O)(=O)C1 (configuration not stated) | -0.392
* O=C(CCl)NCc1cccc(F)c1 | 0.227

Provide each entry's log2 ratio of Biotin-Ahx-Ub-VS probe labelling from the list below.
1. O=C(CCl)N1CCc2nc[nH]c2C1c1ccc(Cl)cc1 (configuration not stated)
2. O=C(CCl)Nc1cccc(C(=O)N2CCSCC2)c1

Result:
1: 0.28; 2: 0.0211

====

Molecular target: USP42 (UniProt Q9H9J4)
Sequence (Q9H9J4 whole entry, the tested form may be a part): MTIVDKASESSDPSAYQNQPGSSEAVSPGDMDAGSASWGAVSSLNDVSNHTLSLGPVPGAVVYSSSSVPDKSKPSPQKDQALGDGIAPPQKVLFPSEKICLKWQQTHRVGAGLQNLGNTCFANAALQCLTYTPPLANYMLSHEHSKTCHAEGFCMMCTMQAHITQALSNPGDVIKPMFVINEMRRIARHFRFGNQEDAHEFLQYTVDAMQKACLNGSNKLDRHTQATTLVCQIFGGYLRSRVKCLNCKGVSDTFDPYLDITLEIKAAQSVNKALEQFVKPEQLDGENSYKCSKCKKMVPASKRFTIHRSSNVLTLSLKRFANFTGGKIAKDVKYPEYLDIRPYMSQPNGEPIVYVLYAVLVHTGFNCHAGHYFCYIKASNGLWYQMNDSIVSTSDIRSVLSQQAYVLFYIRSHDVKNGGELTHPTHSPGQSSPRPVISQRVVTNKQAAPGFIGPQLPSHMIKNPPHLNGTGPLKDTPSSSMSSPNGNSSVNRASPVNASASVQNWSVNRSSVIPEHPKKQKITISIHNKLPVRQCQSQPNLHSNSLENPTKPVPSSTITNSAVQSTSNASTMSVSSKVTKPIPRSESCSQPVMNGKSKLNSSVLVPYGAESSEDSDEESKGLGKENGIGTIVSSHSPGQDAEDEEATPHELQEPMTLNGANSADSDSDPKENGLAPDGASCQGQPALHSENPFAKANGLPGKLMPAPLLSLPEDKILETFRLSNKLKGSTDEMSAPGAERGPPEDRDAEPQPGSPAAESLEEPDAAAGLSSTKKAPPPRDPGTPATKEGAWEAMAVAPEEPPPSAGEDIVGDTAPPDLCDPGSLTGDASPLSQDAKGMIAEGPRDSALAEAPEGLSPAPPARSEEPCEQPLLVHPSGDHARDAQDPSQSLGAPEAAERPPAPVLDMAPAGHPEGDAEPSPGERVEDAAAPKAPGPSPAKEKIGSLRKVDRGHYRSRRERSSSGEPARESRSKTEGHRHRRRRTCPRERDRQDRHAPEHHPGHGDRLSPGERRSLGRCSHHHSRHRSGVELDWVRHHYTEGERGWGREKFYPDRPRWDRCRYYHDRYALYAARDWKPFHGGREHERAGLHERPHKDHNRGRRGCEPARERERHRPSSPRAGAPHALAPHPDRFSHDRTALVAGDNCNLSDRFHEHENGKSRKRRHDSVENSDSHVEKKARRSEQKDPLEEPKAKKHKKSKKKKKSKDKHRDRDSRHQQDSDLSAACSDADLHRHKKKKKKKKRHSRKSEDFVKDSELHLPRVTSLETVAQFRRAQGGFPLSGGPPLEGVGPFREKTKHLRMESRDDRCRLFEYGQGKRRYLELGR
Assay: log2 ratio of Biotin-Ahx-Ub-VS probe labelling (fragment/DMSO); higher = less target engagement (more negative = stronger competition), active = hit call of the paper (q ≤ 0.05, log2 ratio ≤ -1)
Settings: compound concentration: 200 uM; treatment time: 3 h
Use criterion met when the recorded log2 ratio of Biotin-Ahx-Ub-VS probe labelling is no lower than 0.09; use criterion not met when it is lower.

Task: Could you please find out whether O=C(CCl)N1CCC(O)(Cc2ccc(F)cc2)C1 (stereo unspecified) has log2 ratio of Biotin-Ahx-Ub-VS probe labelling that meets 0.09 or exceeds it?
Result: criterion not met

Task: Could you please find out whether CC1Cc2ccccc2N1C(=O)CCl (stereo unspecified) has log2 ratio of Biotin-Ahx-Ub-VS probe labelling that meets 0.09 or exceeds it?
Result: criterion not met

Task: Could you please find out whether `O=C(CCl)N1CCC2(CCC(O)CC2)CC1` has log2 ratio of Biotin-Ahx-Ub-VS probe labelling that meets 0.09 or exceeds it?
Result: criterion met
